- testDetails: yeast display, Sf9 membrane polyspecificity reagent, FACS + sequencing; frameworks hold sequencing errors

seqText	polyreactivity (PSR sort gate)
QVQLVESGGGLVQAGGSLRLSCAASGSIFNANAMGWYRQAPGKERELVAGIRSGSSTNYADSEKGRFTISRDNAKNTVYLQMNSLKPEDTAVYYCATEGYWVYGFDDEYWGQGTQVTVSS	low polyreactivity
QVQLVESGGGLVQAGGSNRLSCAASGLTSFRYTMGWYRQAPGKDRELVAGISGSRGRTYYADSVKGRFTISRDNAKNTVYLQMNCMKAVDTAVYDCAAGWYTSHAKGKGGYWGQGTQVTVSS	high polyreactivity
QVQLVESGGGLVQAGGTLRLSCAASGYTFVVYAMGWYRQAPGKERELVASISRSGGSTYYADSVKGRFTISRDNAKNTVYLQMNSLKPEDTAVYYCAADVWRVQHRGYNYWGQGTQVTVSS	high polyreactivity
QVQLVESGGGLVQAGGSLRISCAASGRTFALNAMGWYRQAPGKERELVAAISSGGSTYYADSVKGRFTISRDNAKNTVYLQMNSLKPEDTAVYYCAKTSFKYRWSYPVISMDYWGQGTQVTVSS	high polyreactivity
QVQLVESGGGLVQAGGSLRLSCAASGRIFPGYAMGWYRQAPGKERELVAAISGSGVRTYYADSVKGRFTISRDNAKNTVYLQMNSLKPEDTAVYYCAADSKIRTKLDYWGQGTQVTVSS	low polyreactivity
